# key: entry, value: fold induction at 1 µM
- Tested on: primary rat mixed cortical cells
- PROCEDURE SUMMARY: In vitro myelination assay (MBP positive myelin strands, fold myelin pixels above background)
- Format: cell-based
- CONDITIONS USED: Rattus norvegicus, 1.0 μM compound, relative to baseline of no added compound; read-out: Fold myelin pixels above background

Here are 6 compounds together with their reported answers.
{"columns": ["COMPOUND", "RESULT"],
 "data": [
  ["Cc1cc(Nc2ncn(-c3cc(F)cc(F)c3)n2)c(C)c(N2CCN(C3COC3)CC2)c1", "1 to 10"],
  ["Fc1cc(F)cc(-n2cnc(Nc3cc(C4CC4)cc(N4CCN(C5COC5)CC4)c3)n2)c1", "1000 to 10000"],
  ["Cc1cc(Nc2ncn(-c3cc(F)cc(F)c3)n2)cc([C@]2(C)CNC(=O)O2)c1 (single isomer, unassigned)", "10 to 100"],
  ["Cc1cc(Nc2ncn(-c3cc(F)cc(F)c3)n2)cc(N2CCC(C(=O)N3CCOCC3)CC2)c1", "10 to 100"],
  ["Cc1cc(Nc2ncn(-c3ccccn3)n2)cc(N2CCCN(C3COC3)CC2)c1", "100 to 1000"],
  ["CN1CCN(c2cc(Nc3ncn(-c4ccc(F)c(F)c4)n3)cc(Cl)n2)CC1", "10 to 100"]
]}

## Input State the recorded fold induction at 1 µM for this entry: Cc1cc(Nc2ncn(-c3cnccn3)n2)cc([C@@]2(C)CNC(=O)O2)c1 (single isomer, unassigned)
## Output 10 to 100

Numbers sourced from patent US10766869B2.
